# TEST_SUMMARY: qHTS assay for identifying genotoxic compounds that show differential cytotoxicity against isogenic chicken DT40 cell lines with known DNA damage response pathways - wild type cell line (AID 743012); further: nearly all actives have a fitted effect of over 60% in size
# TEST_CONDITIONS: DT40 wild type chicken cells viability, CellTiter-Glo, 40 h; series mostly up to 68.4 µM
Results filed as inconclusive are left out. Active and inactive are the calls of the source. The call rests on the fitted dose curve; in most records, active means well fitted cell-killing curve with a large enough effect in the repeat runs; inconclusive means weak or mixed curves, or effect the other way; inactive means no such curve, though single readings can be large or run the other way.
Write down one outcome, taken from YES = active, NO = inactive

CC(CO)CO	NO

Input line: Field: outcome | Entry: CC(=O)N/N=C/c1ccc([N+](=O)[O-])o1
Output line: YES

Input line: For O=C(Cn1ccnc1[N+](=O)[O-])NCCO , what call appears in the results of this test?
Output line: NO

Input line: Short answer needed: outcome of this test for OC[C@H]1O[C@@H](n2cnc3c(=S)nc[nH]c32)[C@H](O)[C@@H]1O ?
Output line: YES

Input line: So what was the verdict on c1csc(SSc2cccs2)c1 in this test?
Output line: YES

Input line: // return assay outcome for COC(=O)CCS
Output line: NO

Input line: Could you check what this test reported for C[C@@H](CN(C)C)CN1c2ccccc2Sc2ccccc21 ?
Output line: YES

Input line: Status in this test for CC[C@]1(O)C[C@H]2CN(CCc3c([nH]c4ccccc34)[C@@](C(=O)OC)(c3cc4c(cc3OC)N(C=O)[C@H]3[C@@](O)(C(=O)OC)[C@H](OC(C)=O)[C@]5(CC)C=CCN6CC[C@]43[C@@H]65)C2)C1 ?
Output line: YES

Input line: For this molecule, state the assay outcome: O=c1cc(-c2ccccc2)oc2cc(O)cc(O)c12
Output line: YES

Input line: Just curious, what result did Cc1cc(C)c(N)cc1C get here?
Output line: NO

Input line: Per the assay record, what outcome was assigned to CC(=O)Nc1cc(S(=O)(=O)O)cc2cc(S(=O)(=O)O)c(N=Nc3ccccc3)c(O)c12 ?
Output line: NO

###

# TEST_SUMMARY: qHTS assay to identify small molecule agonists of the sonic hedgehog signaling (Shh) pathway (AID 1259368);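 further: NIH/3T3-derived 3T3Gli1-Luc cells carrying a stable Gli1-driven firefly luciferase reporter; nearly all actives have a fitted effect of over 15% in size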
# TEST_CONDITIONS: NIH/3T3 Gli1-Luc reporter, luciferase, 24 h; series mostly up to 92.4 µM
Active and inactive are the calls of the source. Calls come from the whole dose curve.
Log the outcome using a class from 1 (yes) (active), 0 (no) (inactive)

These solved cases illustrate the format of a correct answer.
O=C1Cc2cc(Cl)ccc2N1	0 (no)
Oc1cccc(O)c1O	0 (no)

Input line: Tell me the assay call for C=COCC(C)C please.
Output line: 0 (no)

Input line: Given COc1ccccc1N1CCN(CCCCNC(=O)c2ccc(-c3ccc(C(C)=O)cc3)cc2)CC1 , state the outcome it received in this test.
Output line: 0 (no)

###

# TEST_SUMMARY: qHTS assay to identify small molecule antagonists of the estrogen receptor alpha (ER-alpha) signaling pathway using the BG1 cell line - cell viability counter screen (AID 743081);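 further: compound given together with 17beta-estradiol as the ER stimulus; nearly all actives have a fitted effect of over 45% in size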
# TEST_CONDITIONS: BG1Luc4E2 viability, CellTiter-Fluor, 22 h; series mostly up to 70.3 µM
Results filed as inconclusive are left out. Active and inactive are the calls of the source. The call rests on the fitted dose curve; in most records, active means well fitted cell-killing curve with a large enough effect in the repeat runs; inconclusive means weak or mixed curves, or effect the other way; inactive means flat fitted curve, though single readings scatter.
I would appreciate it if you answered using one of these outcomes: YES for active, NO for inactive

O=C=Nc1ccc(Cl)c(Cl)c1	NO
O=C1NCCN1CCO	NO
Cc1[nH]cnc1CN1CCc2c(c3ccccc3n2C)C1=O	NO
O=C1NC(=O)c2cc([N+](=O)[O-])ccc21	NO
Cc1ccc(Cl)c(Nc2ccccc2C(=O)O)c1Cl	NO

Input line: Field: outcome | Entry: O=C(O)c1cccc(-c2noc(-c3ccccc3F)n2)c1
Output line: NO

Input line: How was O=c1[nH]c2ccc(Cl)cc2o1 classified in this test?
Output line: NO

Input line: Look up the recorded call for c1ccc2c(c1)CCc1ccccc1N2 in this test.
Output line: NO

Input line: GET /call?item= CCC(C)COC(=O)CC(C)C (centres undefined) returns the recorded outcome of this test.
Output line: NO

Input line: Name the outcome recorded for Nc1ncnc2c1ncn2[C@H]1CC[C@@H](CO)O1 in the assay.
Output line: NO

Input line: For this compound, state the assay outcome: O=C=Nc1cccc(C(F)(F)F)c1
Output line: NO

Input line: Write down the call the test reported for this compound. Item: c1csc(SSc2cccs2)c1
Output line: NO

Input line: Please let me know the test result on file for O=C(CCc1ccc(O)cc1)c1c(O)cc(O)cc1O .
Output line: NO

Input line: Assay result, entry O=C(Cn1ccnc1[N+](=O)[O-])NCCO — outcome?
Output line: NO

Input line: # fetch the recorded call for COc1ncnc(NS(=O)(=O)c2ccc(N)cc2)c1OC here
Output line: NO

Input line: Name the outcome recorded for CC1=C(CC=O)C(C)(C)CCC1 in the assay.
Output line: NO
